Answer each item with its documented EC50.
- test.system: Zinc finger protein mex-5 (Caenorhabditis elegans, UniProt Q9XUB2)
- Sequence (Q9XUB2 whole entry): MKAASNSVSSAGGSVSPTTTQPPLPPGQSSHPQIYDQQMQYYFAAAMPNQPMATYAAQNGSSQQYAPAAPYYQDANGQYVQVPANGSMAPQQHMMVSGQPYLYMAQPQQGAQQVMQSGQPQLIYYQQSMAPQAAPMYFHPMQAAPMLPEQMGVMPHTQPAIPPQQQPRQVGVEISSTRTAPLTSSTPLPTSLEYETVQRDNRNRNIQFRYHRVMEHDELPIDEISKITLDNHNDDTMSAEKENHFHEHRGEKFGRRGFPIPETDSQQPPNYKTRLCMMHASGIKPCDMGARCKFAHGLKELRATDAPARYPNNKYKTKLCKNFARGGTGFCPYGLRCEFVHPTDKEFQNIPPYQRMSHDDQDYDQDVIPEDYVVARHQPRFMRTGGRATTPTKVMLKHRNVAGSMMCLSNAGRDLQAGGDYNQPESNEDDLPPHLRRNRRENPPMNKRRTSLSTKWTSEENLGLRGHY
- test.protocol: MEX-5/TCR-2 RNA interaction inhibitors, dose response, biochemical, C. elegans, fluorescence polarization (AID 1960)
The source made the active and inactive calls.

Problem: What does the data say about its EC50? Entry: "O=c1[nH]nc(CNc2ccc(O)cc2)c2ccccc12"
Solution: 15.3 µM (inconclusive)

Problem: And for CCOC(=O)N1CCN(c2nc3ccccc3nc2C(C#N)S(=O)(=O)c2ccc(C)cc2)CC1 (stereo not given) ?
Solution: 170 µM (inconclusive)

Problem: Moving on to "CN1C(=O)C(=Cc2ccc(N3CCCCC3)o2)C(=O)N(C)C1=S"
Solution: > 300 µM (inconclusive)

Problem: Consider next the molecule "O=C(O)c1ccc(-n2c(-c3cc(-c4ccco4)[nH]n3)n[nH]c2=S)cc1" in the same way.
Solution: 4.74 µM (inconclusive)

Problem: What do we get for "NS(=O)(=O)c1ccc(-c2cccc(/C=C3\SC(=O)NC3=O)c2)cc1" ?
Solution: 16.6 µM (active)

---

- test.system: Zinc finger protein mex-5 (Caenorhabditis elegans, UniProt Q9XUB2)
- test.protocol: MEX-5/TCR-2 RNA interaction inhibitors, dose response, biochemical, C. elegans, fluorescence polarization (AID 1960)
Calls of active or inactive are those of the source.
Provide the recorded EC50 for the entries that follow.

Problem: So what does the record say about EC50 for "COc1ccc(/C=C/C(O)=C2\C(=O)NC(=O)N(CCC3=CCCCC3)C2=O)cc1OC" ?
Solution: > 300 µM (inconclusive)

Problem: Same for "COc1ccc(CCNC(=O)c2cc3c(=O)n4cccc(C)c4nc3n(CCCN3CCOCC3)c2=N)cc1"
Solution: 192 µM (active)

Problem: How about this compound: "Cc1[nH][nH]c(=O)c1C(c1cc([N+](=O)[O-])ccc1O)c1c(C)[nH][nH]c1=O"
Solution: 16.7 µM (active)

Problem: Can you handle Cc1cccc(S(=O)(=O)C(C#N)c2nc3ccccc3nc2N2CCOCC2)c1 (centres undefined) next?
Solution: > 300 µM (not active)

---

- test.system: Cytochrome P450 2C19 (Homo sapiens, UniProt P33261)
- Sequence (P33261 whole entry): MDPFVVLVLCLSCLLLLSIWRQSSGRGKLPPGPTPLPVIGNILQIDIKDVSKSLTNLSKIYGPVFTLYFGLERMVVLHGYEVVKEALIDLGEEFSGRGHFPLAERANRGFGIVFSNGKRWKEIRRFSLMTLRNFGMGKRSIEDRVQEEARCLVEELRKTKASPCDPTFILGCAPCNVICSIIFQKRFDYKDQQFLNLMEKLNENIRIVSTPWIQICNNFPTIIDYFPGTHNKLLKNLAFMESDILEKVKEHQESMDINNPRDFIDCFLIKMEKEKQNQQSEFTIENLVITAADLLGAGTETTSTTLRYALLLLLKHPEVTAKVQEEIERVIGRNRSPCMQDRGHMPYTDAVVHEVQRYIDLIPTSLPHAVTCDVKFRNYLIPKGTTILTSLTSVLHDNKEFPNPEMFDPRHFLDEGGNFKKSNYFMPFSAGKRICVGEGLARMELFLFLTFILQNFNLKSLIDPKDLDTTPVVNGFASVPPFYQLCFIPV
- test.protocol: Cytochrome panel assay with activity outcomes. Panel member name: p450-cyp2c19 Compounds with AC50 equal or less than 10 uM are considered active
- Format: functional
- measurement.parameters: read-out: AC50
readout.label: AC50

Problem: Name the reported AC50 value associated with the compound "CCCCCCCCCCCCC/C=C\[C@@H](O)[C@@H](N)CO"
Solution: 25.1 µM (inconclusive)

Problem: Query COC(=O)C1(Cc2ccccc2)C=C2C(=C(C(C)C)C(=O)C2C)CN1 (stereo not given) next
Solution: 39.8 µM (inconclusive)

Problem: Now consider "CN1C(=O)C(=Cc2ccc(N3CCCCC3)o2)C(=O)N(C)C1=S" .
Solution: 2.82 µM (inconclusive)

Problem: Then this compound: "O=c1[nH]ncc2c3ccccc3n(Cc3ccccc3)c12"
Solution: 2.51 µM (inconclusive)

Problem: Check COc1ccc(-c2coc3cc(OC)cc(O)c3c2=O)cc1 [4',7-DIMETHOXY-5-HYDROXYGENISTEIN] too.
Solution: 25.1 µM (inconclusive)

Problem: Then "CCOC(=O)c1c(C)n(C)c2ccc(OC)c(NC(=O)CN3CCCCC3)c12" ?
Solution: 11.2 µM (inconclusive)

Problem: Now this one: "COc1ccccc1-c1cncnc1-n1ccnc1"
Solution: 25.1 µM (inconclusive)

Problem: And then Cc1cc(SC(C)C(=O)Nc2c(C)n(C)n(-c3ccccc3)c2=O)nc2ccccc12 (stereo not given) , what is it?
Solution: 11.2 µM (inconclusive)

Problem: Then Cc1onc(-c2ccccc2)c1C(=O)NC(CC(=O)O)c1ccc(OC(C)C)cc1 (stereo not given) ?
Solution: 7.08 µM (inconclusive)

Problem: Now the same for CCOc1cc(NC(=O)c2ccccc2C)c(OCC)cc1N=C(S)NCC1CCCO1 (stereo not given)
Solution: 11.2 µM (inconclusive)
